Below, each entry is listed alongside its reported apparent KD of MS2 coat protein.
- Test system: MS2 coat protein
- method.description: apparent KD of MS2 coat protein; designed switch direction (-1 OFF switch, 1 ON switch): 1; higher = weaker reporter binding
- condition.label: input ligand: microRNA oligo, concentration not stated
quantity.name: apparent KD of MS2 coat protein (nM)

item.sequence	recorded.number
GCACUCCUAGGAGCUGCGACAUGAGGAUCACCCAUGUAAUCACAGGAUAUGCAAUUCUGAAUUUUGCAGAAGGGUGAUAGGAAA [Zausorbi] (Eterna round: R96, puzzle: Same State NG 3)	270
CCUUGUAGCGGAGGAUAUGGGCCUCACUCAGUCAAAGAGUGAGAAACAUGAGGAUCACCCAUGUCCCAGAAGGCCGCUGCUUGG [Estiveveza] (Eterna round: R96, puzzle: Same State NG 2)	12.3
AUUAAUAAUCUAGGAUAUCACGUCGAUUAGACGUGAGAAGGAGAUCAUAACAUGAGGAUCACCCAUGUAUUACAUGAAGUUAAU [SSNG1/7-B2] (Eterna round: R96, puzzle: Same State NG 1)	28.8
GGAAUAUGAUGUUACAUGAGGAUCACCCAUGUAGUGACAACUAAGGAUAUCUGAAAGGAAGGAGAGGAGAAGGUAGGAUCAUAA [AK SSNG3-V2-14] (Eterna round: R96, puzzle: Same State NG 3)	24.6
GGUGCGAAUAAAGCCUACAUGAGGAUCACCCAUGUAUGUAGGCAGGAUAUCGUUUGCUUUGCAAACGAGAAGGGCUGUCGCACC [JL SSNG3 1.16] (Eterna round: R96, puzzle: Same State NG 3)	49
GCUACCAAAGAAGCCAACAUGAGGAUCACCCAUGUAUGUUGGUAGGAUAUCGUUUGCAAAGCGAACGAGAAGGGCUAAGGUAGC [Mat - Same State NG 3 - JL Mod - D85] (Eterna round: R96, puzzle: Same State NG 3)	88.1
ACAUGAGAGUUAGGAUAUCUUGUACCUACAUGUGACAUGAGGAUCACCCAUGUGGUAAGUAUGAGGGAGAAGGGACAGAUAUGU [Equivalence 44 - Jieux - Same State NG 2] (Eterna round: R96, puzzle: Same State NG 2)	54.4
AGAGGAGGCGCAGGAUAUACGACGGAGGACGAGGUAGAAGGGUGCAUGCGAUAACAUGAGGAUCACCCAUGUACCGCGCGACGA [AK SSNG1-V2-17.1] (Eterna round: R96, puzzle: Same State NG 1)	24.9
GGUAGGUUACUACCAAACAUGAGGAUCACCCAUGUAAAUGGGAAGGAUAUGGUACCUAUUUGGUACCAGAAGGUCUAAUUAAUU [JL Fiskers NG3ss - 2 mod 1] (Eterna round: R96, puzzle: Same State NG 3)	479
UGGCUCAGACGAGGAUAUAUGUGGUCACAUGAGGAUCACCCAUGUCUCGAGCUUCGGCUCGAGGCAUAGAAGGUGUCUGAGCCU [SSNG2/5-C3] (Eterna round: R96, puzzle: Same State NG 2)	33.5
GGUGGGUUGCUGCCGGCACAUGAGGAUCACCCAUGUUUUGGGAAGGAUAUGGUACCUGUUUGGUGCCAGAAGGUCCCGUUGGUG [salish99_SSNG3_r04_711] (Eterna round: R96, puzzle: Same State NG 3)	526
UGGUACAUGGGAGGAUAUCAUGUAGAAACAUGAGGAUCACCCAUGUGGAUGGAGACAUCGGAGAUUGAGAAGGCCCAUGUACCU [JL SSNG1 3.56] (Eterna round: R96, puzzle: Same State NG 2)	20.9
GGAUGAUUAACAGGAUAUCAUUUGUAAAUUCGAUGAGAAGGGUUGAUUACUUACACGACGUGUUACAUGAGGAUCACCCAUGUU [SameState NG1 #6] (Eterna round: R96, puzzle: Same State NG 1)	385
GGUGGGUUGCUACCAACACAUGAGGAUCACCCAUGUUUUGGGAAGGAUAUGGUACCUAUUUGGUACCAGAAGGUCCCGUUGGUG [salish99_SSNG3_r04_706] (Eterna round: R96, puzzle: Same State NG 3)	40.4
GCCAACUAAUGAGGAUAUGGCACCUUAUUGGUGCCAGAAGGCAUGUCAAUUGACAUGAGGAUCACCCAUGUAUUAUAGUUGGCG [salish99_SSNG1_r04_601] (Eterna round: R96, puzzle: Same State NG 1)	438
UGGCUCAGACGAGGAUAUAUGUGAUCACAUGAGGAUCACCCAUGUCUCGAGCUUCGGCUCGAGACAUAGAAGGUGUCUGAGCCU [SSNG2/3-C3] (Eterna round: R96, puzzle: Same State NG 2)	12.2
GUGCUCGUGUGAGGAUAUGCUUCCGUUUCGGCUGCAGAAGGUACUAUUAUACAUGAGGAUCACCCAUGUCUCUUUUGUUUGGUG [salish99_SSNG1_r04_910] (Eterna round: R96, puzzle: Same State NG 1)	51.9
GGAGCCAAGGCAGGAUAUUCAUUAUAAAUUACAUGAGGAUCACCCAUGUUGGCCAGAAGGCCAUGGGAGAAGGGCCAUGGCUCG [Xeonanis - 13 mod25] (Eterna round: R96, puzzle: Same State NG 2)	280

Hello, the source for this data is the supplement of paper PMC9170038, in case you need it.
